- Tested on: EKVX NSCLC
- assay comment: NCI tumour cell line growth inhibition, 48 h
Where a SMILES comes first, the peptide text is derived from it. [ ]: non-standard residue; d: D form. ξ: configuration not given here. Pentanoyl(2-O,4-OH,5-Cl) = O=C(O)C(O)CC(O)CCl; Ile(3ξ) = CCC(C)[C@H](N)C(=O)O; NMeV = CN[C@H](C(=O)O)C(C)C; NMeA = CN[C@@H](C)C(=O)O; βAla = NCCC(=O)O
Quick reference for TGI among some molecules

molecule	target of assay	TGI
CCN(CC)c1c(-c2c(OC(C)C)c(=O)c2=O)c(=O)n2ccsc2c1OC(C)=O	EKVX NSCLC	> 100 µM
COc1cc(OC)c(OC)cc1/C=C/c1ccccn1	EKVX NSCLC	> 10 µM
O=C(CN1CCCCC1)c1ccc2[nH]c(=O)oc2c1	EKVX NSCLC	> 100 µM
CCCCOc1ccc(/C=C/C2=[N+](CCO)CCO2)cc1	EKVX NSCLC	> 100 µM
Cc1c2ccccc2c(=O)n2c(-c3ccccn3)cccc12	EKVX NSCLC	> 100 µM
CCC(C)[C@@H]1NC(=O)[C@@H]2CCCN2C(=O)C(CC(O)CCl)OC(=O)CCNC(=O)[C@H](C)N(C)C(=O)[C@H](C(C)C)N(C)C1=O (some centres not stated) (cyclo([Ile(3ξ)][NMeV][NMeA][βAla][Pentanoyl(2-O,4-OH,5-Cl)]P))	EKVX NSCLC	> 100 µM
COc1cc2ncnc(Nc3cccc(Br)c3)c2cc1OC	EKVX NSCLC	31.9 µM

* * *

- System: CAKI-1 renal
- assay comment: NCI tumour cell line growth inhibition, 48 h

compound	TGI
[O-]c1ccccc1C=NCCN=Cc1ccccc1[O-].[O]=[U+2]=[O]	> 67.6 µM
CSC(=Nc1ccc([N+](=O)[O-])cc1C#N)NC(=O)c1ccccc1	> 100 µM
O=C1c2ccccc2C(=O)N1C/C=N/NS(=O)(=O)c1cccc([N+](=O)[O-])c1	> 100 µM
COC(=O)c1sc2nc(Nc3ccccc3)c(=Nc3ccccc3)sc2c1C	> 100 µM
Clc1ccc(NCNC2Nc3ccccc3N2)cc1Cl	> 100 µM
COC(=O)C12C(=O)CC3CCC1C32C(=O)OC (stereo unspecified)	> 100 µM
CC(C)(Sc1cc(C(C)(C)C)c(O)c(C(C)(C)C)c1)Sc1cc(C(C)(C)C)c(O)c(C(C)(C)C)c1	> 100 µM
Clc1cccc(-c2cc(-c3ccc4c(c3)OCCO4)[nH]n2)c1	36.3 µM
COc1ccc2c(c1[N+](=O)[O-])CC[C@@H]1[C@@H]2CC[C@]2(C)C(=O)CC[C@@H]12	> 1000 µM
O=C1C(NS(=O)(=O)c2ccccc2)=C(n2ccnc2)C(=O)c2ccccc21	> 100 µM
CCC(=O)N1C(=S)SC[C@H]1C(=O)OC	> 100 µM

* * *

Quick reference for TGI among some compounds
- Test system: OVCAR-4 ovarian
- assay comment: NCI tumour cell line growth inhibition, 48 h

compound	TGI
CCOC(=O)c1ccc(N2C(=O)/C(=C/c3ccc(N(CCC#N)CCC#N)cc3)N=C2c2cc([N+](=O)[O-])ccc2Cl)cc1	> 100 µM
COc1ccc2c(c1)c(-c1ccc(-c3cn(C)c4ccc(OC)cc34)s1)cn2C	> 100 µM
CCCCCCCCCCCCCOCCOCCOCCCCC(O)CCCCCCCCCC1=C[C@H](C)OC1=O (stereo not given in full)	71.9 µM
O=[N+]([O-])C(/C(Cl)=C(/Cl)N1CCOCC1)=C1\Nc2ccccc2O1	> 100 µM
CCN(CC)C(=O)c1cccc2c(OC)ccc(OC)c12	> 100 µM

* * *

- Test system: SK-OV-3 ovarian
- assay comment: NCI tumour cell line growth inhibition, 48 h; in the data active = GI50 below about 0.43 µM; inactive = the rest
Outcomes: yes (1) = active, no (0) = inactive

O=c1[nH]c(=O)n(Cc2ccc(C34CC5CC(CC(C5)C3)C4)c(O)c2)cc1F no (0)
C=CC(=O)N1CCN([C@@H](CC2CC2)c2ccc([C@H](C)Nc3ncc4c(n3)N(CC)C(=O)OC4)cc2)CC1 no (0)
C/C(=C1\C(=O)Nc2ccccc21)c1cccc(/C(C)=C2/C(=O)Nc3ccccc32)n1 no (0)
Cc1ccc(NC(=O)c2ccoc2)cc1-c1ccc(C(=O)NCC2CC2)cc1 no (0)
CCCN1CCC(Oc2cc(Nc3nc(Nc4cccc(F)c4C(N)=O)c4cc[nH]c4n3)c(OC)cc2Cl)CC1 no (0)
CCn1c(-c2nonc2N)nc2cnc(Oc3cccc(NC(=O)c4ccc(OCCN5CCOCC5)cc4)c3)cc21 no (0)
N#Cc1cnc2ccc(NCc3cnc[nH]3)cc2c1Nc1ccc(F)c(Cl)c1 no (0)
O=C(Nc1ccccc1/C=C/c1n[nH]c2ccccc12)c1ccccc1 no (0)
CCCCCOC(=O)c1c(C)[nH]c(/C=C2\N=C(c3ccc[nH]3)C=C2OC)c1C yes (1)
Nc1nc(N)c2cc(S(=O)(=O)c3cccc(C(F)(F)F)c3)ccc2n1 no (0)
CCN(Cc1ccccc1)c1ccc(/C=C2\COc3ccccc3C2=O)cc1 no (0)
CC(C)Cn1cnc2c(N)nc3ccccc3c21 no (0)

* * *

- Test system: SK-MEL-2 melanoma
- assay comment: NCI tumour cell line growth inhibition, 48 h
Please use met whenever TGI is not below 40 µM, and not met whenever it is.

compound	discrete label
OC(c1ccccc1)c1c(-c2ccccc2)[nH]c(-c2ccccc2)c1C(O)c1ccccc1 (centres undefined)	not met
CC(C)C(Sc1nc(-c2ccccc2)c(-c2ccccc2)[nH]1)C(=O)N/N=C/c1ccc(Cl)cc1 (centres undefined)	not met
C=CC(=O)N1CCN([C@@H](CC2CC2)c2ccc([C@H](C)Nc3ncc4c(n3)N(CC)C(=O)OC4)cc2)CC1	not met
O=c1oc2ccccc2cc1P(=O)(O)O	met
Cc1cnoc1/N=C1\C=C(Nc2oncc2C)C(=O)c2ccccc21	met
Clc1ccc2c(NCCCCNc3nc(N4CCOCC4)nc4ccccc34)ccnc2c1	not met
C=CCn1c(SCC(=O)Nc2ccc(C(=O)/C=C/c3cc(OC)c(OC)c(OC)c3)cc2)nnc1-c1cc(OC)c(OC)c(OC)c1	met
CC1=NN(c2ccccc2)C(=O)/C1=C1\SC(c2ccccc2)(c2ccccc2)c2ccccc21	met
CC1OC1C(=O)P(=O)(O)O (centres undefined)	met

* * *

- Test system: CAKI-1 renal
- assay comment: NCI tumour cell line growth inhibition, 48 h; in the data active = GI50 below about 0.43 µM; inactive = the rest
Outcomes: active, inactive

compound	discrete label
CC(C)Cn1cnc2c(N)nc3ccccc3c21	inactive
COc1cc2c(cc1OCCCCCOc1ccc(-c3nc4ccccc4s3)cc1)N=C[C@@H]1CCCN1C2=O	inactive
C/C(=C1\C(=O)Nc2ccccc21)c1cccc(/C(C)=C2/C(=O)Nc3ccccc32)n1	inactive
COc1cccc2c1C(=O)c1c(O)c3c(c(O)c1C2=O)C[C@@](O)(/C(C)=N/NC(=O)c1cccc([N+](=O)[O-])c1)C[C@@H]3OC1CC(N)C(O)C(C)O1 (some centres undefined)	active
Cc1ccc(NC(=O)c2ccoc2)cc1-c1ccc(C(=O)NCC2CC2)cc1	inactive
O=C(O)CN(CCN(CC(=O)O)CC(=O)O)CCN(CC(=O)O)CC(=O)O	inactive
Cc1cc(NC(=O)NCCCOc2ccc(N3C(N)=NC(N)=NC3(C)C)cc2Cl)ccc1S(=O)(=O)F	inactive
CN1CCN(CCCOC(=O)c2c3c(n4ccccc24)C(=O)c2ncccc2C3=O)CC1	active
COc1cc(-c2csc(NC(=O)Nc3ccc(Cl)cc3)n2)cc(OC)c1OC	inactive

* * *

- System: SK-MEL-5 melanoma
- assay comment: NCI tumour cell line growth inhibition, 48 h
*1 amine or outer side, *2 acyl side, *3 side chain or, on linkers, in order; H or OH if unused. Where a SMILES comes first, the peptide text is derived from it. The star is where a group is joined. γGlu = O=C(O)[CH](CCC(=O)[*:2])N[*:1]; NHOH = ON*
Quick reference for TGI among some compounds

compound	target of assay	TGI
CC(=O)Oc1ccc2c(c1)O/C(=C\c1ccc(N(C)C)cc1)C2=O	SK-MEL-5 melanoma	> 100 µM
NC(CCC(=O)NC(CCC(=O)NO)C(=O)NCC(=O)O)C(=O)O (centres undefined) (γGlu-Glu(NHOH)-Gly-OH; configuration not given here)	SK-MEL-5 melanoma	> 100 µM
COc1cc2c(cc1OCCCCCOc1ccc(-c3nc4ccccc4s3)cc1)N=C[C@@H]1CCCN1C2=O	SK-MEL-5 melanoma	3.88 µM
COc1ccccc1C1C(C#N)=C(N)SC(N)=C1C#N	SK-MEL-5 melanoma	> 100 µM
COc1cccc2c1C(=O)c1c(O)c3c(c(O)c1C2=O)C[C@@](O)(/C(C)=N/NC(=O)c1cccc([N+](=O)[O-])c1)C[C@@H]3OC1CC(N)C(O)C(C)O1 (some centres undefined)	SK-MEL-5 melanoma	0.361 µM
O=C(Nc1ccc(Nc2ccc3c(c2)C(=O)c2ccccc2C3=O)c2c1C(=O)c1ccccc1C2=O)c1ccccc1	SK-MEL-5 melanoma	> 100 µM
COc1ccc(Nc2nc3ccccc3nc2-c2cccs2)cc1OC	SK-MEL-5 melanoma	> 10 µM
O=C1c2cccnc2S(=O)(=O)N1c1ccc(Br)cc1	SK-MEL-5 melanoma	> 100 µM
CN(c1ccccc1)c1nc(=[N+](C)C)ss1	SK-MEL-5 melanoma	> 100 µM
